- TARGET OR SYSTEM: Luciferin 4-monooxygenase (Photinus pyralis) (UniProt P08659)
- TEST METHOD NOTES: Primary firefly luciferase (FLuc) qHTS assay for identification of artifact compounds. (AID 1845220); further: nearly all actives have a fitted effect of over 60% in size
- CONDITION DETAILS: purified firefly luciferase, luminescence, 5 min; series mostly up to 54.1 µM
Calls of active or inactive are those of the source. The call rests on the fitted dose curve; in most records, active means well fitted inhibition curve with a large enough effect; inconclusive means small, poorly fitted or top-dose-only effect; inactive means flat fitted curve, though single readings scatter.
Answer with one of the outcomes given here: true (1) (active), false (0) (inactive)

Request: Could you check what this test reported for O=C(Nc1ncc(SCCN2CCCC2)s1)C1(c2ccc(S(=O)(=O)C3CC3)cc2)CC1C1CCCCC1 (stereo not given) ?
Response: false (0)

Request: What did this assay record as the result for "C=C1C(=O)O[C@@H]2CC(C)=C([C@@H](C)CCCO)[C@@H](OC(=O)C(C)C)[C@H]12" ?
Response: false (0)

Request: I'd appreciate the recorded outcome for "CCOC(=O)c1cccc(CNc2ccc(N(C)C(=O)Nc3ccccc3)cc2)c1" from this test.
Response: false (0)

Request: Which result was noted for this compound in the test: "C[C@@H](c1nc(-c2ccc(C#N)cc2)cs1)[C@](O)(Cn1cncn1)c1cc(F)ccc1F"
Response: false (0)

Request: Entry "CC(=O)Nc1ccc(C(=O)Nc2ccccc2N)cc1" : call = ?
Response: false (0)
